Reported PBM E-score values follow for various sequences
Biological target: Pdr3 (UniProt P33200)
Sequence: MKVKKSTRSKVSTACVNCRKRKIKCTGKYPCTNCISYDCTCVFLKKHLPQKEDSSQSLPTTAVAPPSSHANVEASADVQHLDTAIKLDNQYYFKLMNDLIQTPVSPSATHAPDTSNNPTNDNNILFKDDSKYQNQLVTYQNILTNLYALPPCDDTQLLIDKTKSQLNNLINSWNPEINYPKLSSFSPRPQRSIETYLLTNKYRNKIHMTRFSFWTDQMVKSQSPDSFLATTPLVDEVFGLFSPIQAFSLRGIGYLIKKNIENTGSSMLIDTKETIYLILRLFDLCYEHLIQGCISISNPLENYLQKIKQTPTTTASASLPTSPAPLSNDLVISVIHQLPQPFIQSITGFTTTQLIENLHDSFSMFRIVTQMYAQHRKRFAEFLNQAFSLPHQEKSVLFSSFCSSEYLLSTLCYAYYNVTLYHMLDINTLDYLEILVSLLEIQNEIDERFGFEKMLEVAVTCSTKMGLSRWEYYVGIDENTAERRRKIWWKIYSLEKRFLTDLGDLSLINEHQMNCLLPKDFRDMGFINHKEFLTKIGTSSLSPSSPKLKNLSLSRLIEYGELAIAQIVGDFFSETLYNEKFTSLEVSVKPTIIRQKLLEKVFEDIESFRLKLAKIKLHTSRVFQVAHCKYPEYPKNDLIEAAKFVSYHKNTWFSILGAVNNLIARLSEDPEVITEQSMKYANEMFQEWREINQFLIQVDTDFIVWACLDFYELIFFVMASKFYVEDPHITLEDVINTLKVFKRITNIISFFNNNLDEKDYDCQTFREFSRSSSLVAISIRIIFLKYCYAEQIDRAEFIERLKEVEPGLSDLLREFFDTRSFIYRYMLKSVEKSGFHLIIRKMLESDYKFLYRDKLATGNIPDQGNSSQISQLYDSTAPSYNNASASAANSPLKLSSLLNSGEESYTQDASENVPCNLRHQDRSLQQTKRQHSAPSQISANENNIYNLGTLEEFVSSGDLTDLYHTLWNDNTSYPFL
Assay: PBM E-score (8-mer binding enrichment) (E-score (-0.5 to 0.5)); higher = stronger / more preferred TF binding
Conditions: protein concentration: 200 nM; construct: GST-full length
The full ranking holds about 33,000 sequences; the median of “E-score (-0.5 to 0.5)” is about -0.035, and the highest 2% start at about 0.35. For the sample, the highest values were picked, then their nearest neighbours and some sequences at random.
Output spec: single numeric token, no unit.

The measured PBM E-score associated with `CCTAGACG` reads 0.012

The measured PBM E-score associated with `GGGAACCA` reads -0.0124

The measured PBM E-score associated with `GAAGGAAC` reads 0.0934

The measured PBM E-score associated with `TATGGCGA` reads -0.0751

The measured PBM E-score associated with `CGGAACCC` reads 0.477

The measured PBM E-score associated with `AATCGGTA` reads -0.0123

The measured PBM E-score associated with `CGGAACCA` reads 0.483

The measured PBM E-score associated with `AATCAACT` reads 0.0921

The measured PBM E-score associated with `CAGAACCG` reads 0.116

The measured PBM E-score associated with `GCAAGCCC` reads -0.0061

The measured PBM E-score associated with `ACGCCCAA` reads 0.00636
